Molecular target: T1, CXCR4-VN (human, UniProt P61073 1-352)
T1 construct: whole, on cells; Adenovirus-expressed in U-2 OS cells; also called CXCR4 fused with N-terminal fragment of Venus; not shown: VNm10, N-terminal fragment of Venus (VN154 variant with L46F and L64F)
Experiment: BiFC, U-2 OS cells, CXCR4-VN & GPCRx-VC; score=(positive cells/total cells)x100
metric name: BiFC score
Just the number, please.

Here's what some known entries look like.
{"binder": "C5AR1-VC (receptor, human, UniProt P21730 1-350, looked up, whole, on cells; Adenovirus-expressed in U-2 OS cells; not shown: VC155, C-terminal fragment of Venus) MDSFNYTTPDYGHYDDKDTLDLNTPVDKTSNTLRVPDILALVIFAVVFLVGVLGNALVVWVTAFEAKRTINAIWFLNLAVADFLSCLALPILFTSIVQHHHWPFGGAACSILPSLILLNMYASILLLATISADRFLLVFKPIWCQNFRGAGLAWIACAVAWGLALLLTIPSFLYRVVREEYFPPKVLCGVDYSHDKRRERAVAIVRLVLGFLWPLLTLTICYTFILLRTWSRRATRSTKTLKVVVAVVASFFIFWLPYQVTGIMMSFLEPSSPTFLLLKKLDSLCVSFAYINCCINPIIYVVAGQGFQGRLRKSLPSLLRNVLTEESVVRESKSFTRSTVDTMAQKTQAV", "BiFC score": 42}
{"binder": "APLNR-VC (receptor, human, UniProt P35414 1-380, looked up, whole, on cells; Adenovirus-expressed in U-2 OS cells; not shown: VC155, C-terminal fragment of Venus) MEEGGDFDNYYGADNQSECEYTDWKSSGALIPAIYMLVFLLGTTGNGLVLWTVFRSSREKRRSADIFIASLAVADLTFVVTLPLWATYTYRDYDWPFGTFFCKLSSYLIFVNMYASVFCLTGLSFDRYLAIVRPVANARLRLRVSGAVATAVLWVLAALLAMPVMVLRTTGDLENTTKVQCYMDYSMVATVSSEWAWEVGLGVSSTTVGFVVPFTIMLTCYFFIAQTIAGHFRKERIEGLRKRRRLLSIIVVLVVTFALCWMPYHLVKTLYMLGSLLHWPCDFDLFLMNIFPYCTCISYVNSCLNPFLYAFFDPRFRQACTSMLCCGQSRCAGTSHSSSGEKSASYSSGHSQGPGPNMGKGGEQMHEKSIPYSQETLVVD", "BiFC score": 63}
{"binder": "GALR1-VC (receptor, human, UniProt P47211 1-349, looked up, whole, on cells; Adenovirus-expressed in U-2 OS cells; not shown: VC155, C-terminal fragment of Venus) MELAVGNLSEGNASWPEPPAPEPGPLFGIGVENFVTLVVFGLIFALGVLGNSLVITVLARSKPGKPRSTTNLFILNLSIADLAYLLFCIPFQATVYALPTWVLGAFICKFIHYFFTVSMLVSIFTLAAMSVDRYVAIVHSRRSSSLRVSRNALLGVGCIWALSIAMASPVAYHQGLFHPRASNQTFCWEQWPDPRHKKAYVVCTFVFGYLLPLLLICFCYAKVLNHLHKKLKNMSKKSEASKKKTAQTVLVVVVVFGISWLPHHIIHLWAEFGVFPLTPASFLFRITAHCLAYSNSSVNPIIYAFLSENFRKAYKQVFKCHIRKDSHLSDTKESKSRIDTPPSTNCTHV", "BiFC score": 60}

Let us move to another entry and its BiFC score.
Item ADORA3-VC (receptor, human, UniProt P0DMS8 1-318, looked up, whole, on cells; Adenovirus-expressed in U-2 OS cells; not shown: VC155, C-terminal fragment of Venus) MPNNSTALSLANVTYITMEIFIGLCAIVGNVLVICVVKLNPSLQTTTFYFIVSLALADIAVGVLVMPLAIVVSLGITIHFYSCLFMTCLLLIFTHASIMSLLAIAVDRYLRVKLTVRYKRVTTHRRIWLALGLCWLVSFLVGLTPMFGWNMKLTSEYHRNVTFLSCQFVSVMRMDYMVYFSFLTWIFIPLVVMCAIYLDIFYIIRNKLSLNLSNSKETGAFYGREFKTAKSLFLVLFLFALSWLPLSIINCIIYFNGEVPQLVLYMGILLSHANSMMNPIVYAYKIKKFKETYLLILKACVVCHPSDSLDTSIEKNSE has what recorded BiFC score?
43
